system.under.test: His-tagged KRAS G12D protein (Homo sapiens (Human), UniProt P01116, G12D)
Sequence (P01116 other isoform, or with tags, fused parts or gaps G12D): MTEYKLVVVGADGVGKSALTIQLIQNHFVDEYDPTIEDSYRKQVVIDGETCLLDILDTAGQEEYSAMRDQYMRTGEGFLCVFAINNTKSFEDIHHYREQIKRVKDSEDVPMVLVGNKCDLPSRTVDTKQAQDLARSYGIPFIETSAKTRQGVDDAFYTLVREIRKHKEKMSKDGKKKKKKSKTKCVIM
protocol.text: KRAS G12D TR-FRET Assay
Assay type: binding
condition.label: read-out: KRAS G12D Binding IC50
pIC50: −log10 of the molar value.
observable: pIC50

Use these answered entries as a reference point.
compound: Fc1c2ncc3c(nc(OC[C@@]45CCCN4C[C@H](F)C5)nc13)N1CCOC[C@H](C1)c1cnn(n1)CCCc1c(Cl)cc3[nH]ncc3c1-2
pIC50: 8.15
--
compound: C[C@@]12CCCN(C1)c1nc(OC[C@@]34CCCN3C[C@H](F)C4)nc3c(F)c(ncc13)-c1cccc3ccc(F)c(c13)CCCC(=O)N2 [Example 7, bis(2,2,2-trifluoroacetate)]
pIC50: 7.82
--
compound: Fc1c2ncc3c(nc(OC[C@@]45CCCN4C[C@H](F)C5)nc13)N1CCOC[C@H](C1)OC(=S)OCCCc1c(Cl)cc3[nH]ncc3c1-2
pIC50: 8.40

I. O=C1OCCCc2c(Cl)cc3[nH]ncc3c2-c2ncc3c(nc(OC[C@@]45CCCN4C[C@H](F)C5)nc3c2F)N2CCC[C@]3(C2)C[C@H](C3)O1
II. Cc1cc2[nH]ncc2c2c1CCCOC(=O)O[C@@H]1CCCN(C1)c1nc(OC[C@@]34CCCN3C[C@H](F)C4)nc3c(F)c-2ncc13 [Example 38, bis(2,2,2-trifluoroacetate)]
III. Cc1c2ncc3c(nc(OC[C@@]45CCCN4C[C@H](F)C5)nc13)N1CCOC[C@H](C1)OC(=O)OCCCc1c(Cl)cc3[nH]ncc3c1-2 (atropisomer, axis not shown) [Example 341]
IV. Fc1c2ncc3c(nc(OC[C@@]45CCCN4C[C@H](F)C5)nc13)N1CCO[C@]3(C1)C[C@H](C3)OCCCCc1c(Cl)cc3[nH]ncc3c1-2 (single isomer, unassigned)
V. O=C1OCCCc2c(Cl)cc3[nH]ncc3c2-c2ncc3c(nc(O[C@H]4CCOC4)nc3c2F)N2CCOC[C@H](C2)O1
Ranking field: pIC50; order: falling. In your reply, arrange the labels in the requested order.
II, I, III, V, IV
(II: 8.70, I: 8.30, III: 8.00, V: 6.78, IV: 5.49)

a. Fc1c2ncc3c(nc(OC[C@@]45CCCN4C[C@H](F)C5)nc13)N1CCC[C@@H](COCCCCc3c(Cl)cc4[nH]ncc4c3-2)C1
b. Cc1cc2[nH]ncc2c2c1CCCCO[C@H](C)[C@H]1CN(CCO1)c1nc(OC[C@@]34CCCN3C[C@H](F)C4)nc3c(F)c-2ncc13
# min-compare on pIC50 between a and b Kindly state the label of the option you pick.
b
(b: 5.89, a: 8.40)
